# assay.target: rat relaxin family peptide receptor 2 (RXFP2) (rat) (UniProt Q5ECL0)
# Sequence (Q5ECL0 entry or part of it): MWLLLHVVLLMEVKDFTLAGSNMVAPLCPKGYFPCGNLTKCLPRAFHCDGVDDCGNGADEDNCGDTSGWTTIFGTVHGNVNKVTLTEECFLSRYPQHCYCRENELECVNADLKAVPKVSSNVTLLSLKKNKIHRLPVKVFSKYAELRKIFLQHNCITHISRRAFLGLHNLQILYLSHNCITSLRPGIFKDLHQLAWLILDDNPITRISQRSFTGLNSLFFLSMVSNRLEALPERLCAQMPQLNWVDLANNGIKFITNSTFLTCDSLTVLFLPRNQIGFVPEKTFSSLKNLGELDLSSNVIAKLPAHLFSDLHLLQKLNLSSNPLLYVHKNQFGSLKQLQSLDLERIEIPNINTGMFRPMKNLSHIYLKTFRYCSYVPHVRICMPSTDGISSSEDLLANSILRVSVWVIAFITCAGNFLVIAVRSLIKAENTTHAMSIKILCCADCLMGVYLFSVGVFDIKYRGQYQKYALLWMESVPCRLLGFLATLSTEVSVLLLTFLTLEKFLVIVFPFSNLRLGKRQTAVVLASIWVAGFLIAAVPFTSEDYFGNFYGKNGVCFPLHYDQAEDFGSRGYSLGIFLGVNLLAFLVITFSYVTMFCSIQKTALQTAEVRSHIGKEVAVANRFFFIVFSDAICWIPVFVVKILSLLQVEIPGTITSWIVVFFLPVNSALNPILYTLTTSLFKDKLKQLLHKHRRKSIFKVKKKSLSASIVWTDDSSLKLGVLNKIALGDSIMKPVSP
metric: IC50, INSL3-stimulated CYP11B1 mRNA in H295R stably expressing rat RXFP2 (nM)
Please give a number only; it is taken to be in nM.

Ask: Fill in IC50, INSL3-stimulated CYP11B1 mRNA in H295R stably expressing rat RXFP2 for record RXFP2 mAb 2D4 (antibody, V domains shown) VH: QVQLKESGPGLVAPSQSLSITCTVSGFSLTTYGISWVRQPPGKGLEWLGVIWTGGGTNYNSALKSRLSISKDNSKSQVFLKMNSLQTDDTARYYCARTEGYYVMDYWGQGTSVTVSS VL: DIQMTQSPASLSVSVGETVTITCRASENIYSNLVWYQQKQGKSPQLLVYAATNLADGVPSRFSGSGSGTQYSLKINNLQSEDFGTYYCQHFWGPPWTFGGGTKLEIK
Reply: 0.14
